B1: Hairpin Ribozyme (parent)
chain: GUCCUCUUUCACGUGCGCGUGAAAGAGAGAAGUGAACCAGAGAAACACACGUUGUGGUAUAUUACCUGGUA

Variants of: B1
protocol: self-cleavage, relative activity (ratio to wild type); higher = more cleavage; co-transcriptional
result.type: self-cleavage

C18U U62G; 0.0807
C37G A45G; 0.103
G56A C66A; 0.0948
C37A C48U; 0.0819
A35U A49U; 0.155
U20C A39U; 0.315
C48U G56A; 0.222
C6A A35U; 0.428
U8G U33C; 0.117
A22C A64G; 0.467
A47G A61G; 0.219
U7A C37G; 0.342
G15U C18G; 1.02
A11C A47U; 0.251
A30C A49C; 0.0983
U33C A39G; 0.134
A31U A45G; 0.0267
C46U C50G; 0.0749
C66G G69U; 0.0961
A28G G29U; 0.0365
G27C C37G; 0.239
U20A A41U; 1.16
